- protocol text: Cytotoxicity against human BJ cells after 72 hrs by MTT assay
- Assay type: cell-based
measure: CC50 at 72 h (nM)

>>> print(df.to_string())
                            smiles_notation       measure  result_qualifier  quantitative_result
0  OC[C@H]1O[C@@H](n2ccc3c(-c4cc[nH]c4)ncnc32)[C@H](O)[C@@H]1O  CC50 at 72 h                 =                 1870
1  CCc1ncnc2c1ccn2[C@@H]1O[C@H](CO)[C@@H](O)[C@H]1O  CC50 at 72 h                 =                 2700
2  OC[C@H]1O[C@@H](n2ccc3c(-c4cc5ccccc5[nH]4)ncnc32)[C@H](O)[C@@H]1O  CC50 at 72 h                 >                50000
3  OC[C@H]1O[C@@H](n2cc(F)c3c(-c4cc[nH]c4)ncnc32)[C@H](O)[C@@H]1O  CC50 at 72 h                 =                 2020
4  OC[C@H]1O[C@@H](n2cc(F)c3c(-c4ccsc4)ncnc32)[C@H](O)[C@@H]1O  CC50 at 72 h                 =                  620

====

# CC50 at 72 h per record follows
- protocol text: Cytotoxicity against human MRC5 cells after 72 hrs by MTT assay
- Type: cell-based
measure: CC50 at 72 h

>>> df
                            smiles_notation   result
0  OC[C@H]1O[C@@H](n2cc(F)c3c(-c4ccccc4)ncnc32)[C@H](O)[C@@H]1O  > 50 µM
1  OC[C@H]1O[C@@H](n2ccc3c(-c4c[nH]cn4)ncnc32)[C@H](O)[C@@H]1O  > 50 µM
2  OC[C@H]1O[C@@H](n2cc(Cl)c3c(-c4cccs4)ncnc32)[C@H](O)[C@@H]1O  > 50 µM
3  OC[C@H]1O[C@@H](n2ccc3c(-c4cc5ccccc5o4)ncnc32)[C@H](O)[C@@H]1O  > 50 µM
4  COc1ccc(-c2ncnc3c2ccn3[C@@H]2O[C@H](CO)[C@@H](O)[C@H]2O)cc1  > 50 µM
5  OC[C@H]1O[C@@H](n2cc(F)c3c(-c4c[nH]cn4)ncnc32)[C@H](O)[C@@H]1O  > 50 µM
6  OC[C@H]1O[C@@H](n2ccc3c(-c4ccco4)ncnc32)[C@H](O)[C@@H]1O  11.8 µM
7  OC[C@H]1O[C@@H](n2ccc3c(-c4ccc(F)cc4)ncnc32)[C@H](O)[C@@H]1O  > 50 µM
8  OC[C@H]1O[C@@H](n2cc(F)c3c(-c4cccs4)ncnc32)[C@H](O)[C@@H]1O  47.2 µM

====

- target under test: Adenosine kinase (Mycobacterium tuberculosis (strain CDC 1551 / Oshkosh), UniProt P9WID4)
- Sequence (P9WID4 whole entry): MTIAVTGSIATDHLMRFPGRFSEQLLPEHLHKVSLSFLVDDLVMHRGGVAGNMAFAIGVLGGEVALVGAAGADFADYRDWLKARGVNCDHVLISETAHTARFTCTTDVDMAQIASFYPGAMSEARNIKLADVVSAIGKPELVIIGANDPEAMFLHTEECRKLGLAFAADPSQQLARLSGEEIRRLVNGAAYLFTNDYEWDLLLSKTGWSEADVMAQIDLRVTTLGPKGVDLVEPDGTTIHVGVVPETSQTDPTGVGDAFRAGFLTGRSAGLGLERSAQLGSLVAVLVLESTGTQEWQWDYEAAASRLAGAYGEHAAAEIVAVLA
- protocol text: Inhibition of Mycobacterium tuberculosis ADK using [3H]-adenosine by scintillation counting method
measure: IC50 (nM)

In [3]: df
Out[3]:
                             smiles_notation  result_qualifier  quantitative_result
 0  OC[C@H]1O[C@@H](n2cc(F)c3c(-c4c[nH]cn4)ncnc32)[C@H](O)[C@@H]1O                 =                 1000
 1  OC[C@H]1O[C@@H](n2cc(Cl)c3c(-c4ccccc4)ncnc32)[C@H](O)[C@@H]1O                 =                  220
 2  CCCCCCCCCCCCCCCCCCOP(=O)(O)OC[C@H]1O[C@@H](n2ccc3c(-c4cc5ccccc5o4)ncnc32)[C@H](O)[C@@H]1O                 >                20000
 3  OC[C@H]1O[C@@H](n2ccc3c(-c4cc5ccccc5o4)ncnc32)[C@H](O)[C@@H]1O                 =                 14.5
 4  CCCCCCCCCCCCCCCCCCOP(=O)(O)OC[C@H]1O[C@@H](n2ccc3c(-c4ccco4)ncnc32)[C@H](O)[C@@H]1O                 >                20000
 5  OC[C@H]1O[C@@H](n2cc(Cl)c3c(-c4ccco4)ncnc32)[C@H](O)[C@@H]1O                 =                  110
 6  OC[C@H]1O[C@@H](n2cc(F)c3c(-c4ccc[nH]4)ncnc32)[C@H](O)[C@@H]1O                 =                   70
 7  OC[C@H]1O[C@@H](n2cc(F)c3c(-c4ccoc4)ncnc32)[C@H](O)[C@@H]1O                 =                  150
 8  CCCCCCCCCCCCCCCCCCOP(=O)(O)OC[C@H]1O[C@@H](n2ccc3c(-c4ccccc4)ncnc32)[C@H](O)[C@@H]1O                 >                20000
 9  CCc1ncnc2c1ccn2[C@@H]1O[C@H](CO)[C@@H](O)[C@H]1O                 =                 8100
10  OC[C@H]1O[C@@H](n2cc(F)c3c(-c4ccco4)ncnc32)[C@H](O)[C@@H]1O                 =                  190
11  OC[C@H]1O[C@@H](n2ccc3c(-c4cc5ccccc5s4)ncnc32)[C@H](O)[C@@H]1O                 =                  7.5
12  OC[C@H]1O[C@@H](n2ccc3c(-c4ccccc4)ncnc32)[C@H](O)[C@@H]1O                 =                  120
13  OC[C@H]1O[C@@H](n2cc(F)c3c(-c4cccs4)ncnc32)[C@H](O)[C@@H]1O                 =                   35
14  OC[C@H]1O[C@@H](n2ccc3c(-c4nccs4)ncnc32)[C@H](O)[C@@H]1O                 =                   23
15  OC[C@H]1O[C@@H](n2ccc3c(-c4ccccn4)ncnc32)[C@H](O)[C@@H]1O                 =                  120
16  OC[C@H]1O[C@@H](n2cc(Cl)c3c(-c4cccs4)ncnc32)[C@H](O)[C@@H]1O                 =                   70
17  OC[C@H]1O[C@@H](n2cc(Cl)c3c(-c4ccsc4)ncnc32)[C@H](O)[C@@H]1O                 =                  250
18  OC[C@H]1O[C@@H](n2ccc3c(-c4ccc(F)cc4)ncnc32)[C@H](O)[C@@H]1O                 =                   80
19  OC[C@H]1O[C@@H](n2ccc3c(-c4ccn[nH]4)ncnc32)[C@H](O)[C@@H]1O                 =                   59
20  CCCCCCCCCCCCCCCCCCOP(=O)(O)OC[C@H]1O[C@@H](n2ccc3c(-c4cccs4)ncnc32)[C@H](O)[C@@H]1O                 >                20000
21  OC[C@H]1O[C@@H](n2ccc3c(-c4ccco4)ncnc32)[C@H](O)[C@@H]1O                 =                  320
22  OC[C@H]1O[C@@H](n2cc(Cl)c3c(-c4ccc(F)cc4)ncnc32)[C@H](O)[C@@H]1O                 =                  400
23  OC[C@H]1O[C@@H](n2ccc3c(-c4cc5ccccc5[nH]4)ncnc32)[C@H](O)[C@@H]1O                 =                   40
24  Cc1ncnc2c1ccn2[C@@H]1O[C@H](CO)[C@@H](O)[C@H]1O                 =                 8800
25  OC[C@H]1O[C@@H](n2ccc3c(-c4ccc[se]4)ncnc32)[C@H](O)[C@@H]1O                 =                   30
26  CCCCCCCCCCCCCCCCCCOP(=O)(O)OC[C@H]1O[C@@H](n2ccc3c(-c4ccoc4)ncnc32)[C@H](O)[C@@H]1O                 >                20000
27  OC[C@H]1O[C@@H](n2ccc3c(-c4cccnc4)ncnc32)[C@H](O)[C@@H]1O                 =                 1000
28  OC[C@H]1O[C@@H](n2cc(F)c3c(-c4nccs4)ncnc32)[C@H](O)[C@@H]1O                 =                   28
29  OC[C@H]1O[C@@H](n2cc(F)c3c(-c4ccsc4)ncnc32)[C@H](O)[C@@H]1O                 =                   63
30  OC[C@H]1O[C@@H](n2ccc3c(-c4cccs4)ncnc32)[C@H](O)[C@@H]1O                 =                   46
31  OC[C@H]1O[C@@H](n2cc(F)c3c(-c4cc[nH]c4)ncnc32)[C@H](O)[C@@H]1O                 =                  400
32  OC[C@H]1O[C@@H](n2ccc3c(Cc4ccccc4)ncnc32)[C@H](O)[C@@H]1O                 >                20000
33  OC[C@H]1O[C@@H](n2ccc3c(-c4ccoc4)ncnc32)[C@H](O)[C@@H]1O                 =                  320
34  COc1ccc(-c2ncnc3c2ccn3[C@@H]2O[C@H](CO)[C@@H](O)[C@H]2O)cc1                 =                   58
